Reported inhibition of growth at 10 µM values for the following compounds.
- Tested on: ACHN
- METHOD: Anticancer activity against human ACHN cells assessed as cell growth inhibition at 10 uM incubated for 48 hrs by SRB assay relative to control
- Assay type: functional
- REPORTED_CONDITIONS: read-out: GI
MEASUREMENT_KIND: inhibition of growth at 10 µM

> print(dat)
                               smiles.string  result
 1  CN(C)c1ccc(/C=N/Nc2nc(Nc3ccccc3)nc(Nc3ccc(S(N)(=O)=O)cc3)n2)cc1     15%
 2  NS(=O)(=O)c1ccc(Nc2nc(N/N=C/c3ccc(C(F)(F)F)cc3)nc(Nc3ccccc3)n2)cc1     60%
 3  NS(=O)(=O)c1ccc(Nc2nc(N/N=C/c3ccccn3)nc(Nc3ccccc3)n2)cc1     82%
 4  Cc1ccc(/C=N/Nc2nc(Nc3ccccc3)nc(Nc3ccc(S(N)(=O)=O)cc3)n2)cc1     38%
 5  NS(=O)(=O)c1ccc(Nc2nc(N/N=C/c3ccccc3)nc(Nc3ccccc3)n2)cc1     17%
 6  NS(=O)(=O)c1ccc(Nc2nc(N/N=C/c3cccs3)nc(Nc3ccccc3)n2)cc1     21%
 7  NNc1nc(Nc2ccccc2)nc(Nc2ccc(S(N)(=O)=O)cc2)n1   < 10%
 8  NS(=O)(=O)c1ccc(Nc2nc(N/N=C/C=C/c3ccccc3)nc(Nc3ccccc3)n2)cc1     61%
 9  NS(=O)(=O)c1ccc(Nc2nc(N/N=C/c3c[nH]c4ccccc34)nc(Nc3ccccc3)n2)cc1     18%
10  NS(=O)(=O)c1ccc(Nc2nc(N/N=C/c3ccc([N+](=O)[O-])cc3)nc(Nc3ccccc3)n2)cc1     17%
11  Cc1nn(-c2ccccc2)cc1/C=N/Nc1nc(Nc2ccccc2)nc(Nc2ccc(S(N)(=O)=O)cc2)n1    100%
12  NS(=O)(=O)c1ccc(Nc2nc(N/N=C/c3ccc(Cl)cc3)nc(Nc3ccccc3)n2)cc1   < 10%
13  COc1ccc(/C=N/Nc2nc(Nc3ccccc3)nc(Nc3ccc(S(N)(=O)=O)cc3)n2)cc1     24%
14  NS(=O)(=O)c1ccc(Nc2nc(N/N=C/CCc3ccccc3)nc(Nc3ccccc3)n2)cc1   < 10%
15  NS(=O)(=O)c1ccc(Nc2nc(N/N=C/c3ccc(F)cc3)nc(Nc3ccccc3)n2)cc1     19%
16  NS(=O)(=O)c1ccc(Nc2nc(N/N=C/c3ccc4c(c3)OCO4)nc(Nc3ccccc3)n2)cc1     42%
17  CCCCc1nc(/C=N/Nc2nc(Nc3ccccc3)nc(Nc3ccc(S(N)(=O)=O)cc3)n2)c(Cl)[nH]1   < 10%
18  NS(=O)(=O)c1ccc(Nc2nc(N/N=C/c3cccc4ccccc34)nc(Nc3ccccc3)n2)cc1     18%

----------
- System: HCC 2998
- METHOD: Anticancer activity against human HCC 2998 cells assessed as cell growth inhibition at 10 uM incubated for 48 hrs by SRB assay relative to control
- Type: functional
- REPORTED_CONDITIONS: read-out: GI
Group membership follows inhibition of growth at 10 µM per the scheme label 0 = under 20%, label 1 = from 20% up to 60%, label 2 = 60% and over

> print(dat)
                              smiles.string  target.desc  class.name
1  NS(=O)(=O)c1ccc(Nc2nc(N/N=C/c3ccccc3)nc(Nc3ccccc3)n2)cc1     HCC 2998     label 1
2  NS(=O)(=O)c1ccc(Nc2nc(N/N=C/c3cccs3)nc(Nc3ccccc3)n2)cc1     HCC 2998     label 0
3  CCCCc1nc(/C=N/Nc2nc(Nc3ccccc3)nc(Nc3ccc(S(N)(=O)=O)cc3)n2)c(Cl)[nH]1     HCC 2998     label 1
4  NS(=O)(=O)c1ccc(Nc2nc(N/N=C/c3ccc4c(c3)OCO4)nc(Nc3ccccc3)n2)cc1     HCC 2998     label 2
5  COc1ccc(/C=N/Nc2nc(Nc3ccccc3)nc(Nc3ccc(S(N)(=O)=O)cc3)n2)cc1     HCC 2998     label 0
6  NS(=O)(=O)c1ccc(Nc2nc(N/N=C/c3ccccn3)nc(Nc3ccccc3)n2)cc1     HCC 2998     label 2
7  Cc1ccc(/C=N/Nc2nc(Nc3ccccc3)nc(Nc3ccc(S(N)(=O)=O)cc3)n2)cc1     HCC 2998     label 1
8  NS(=O)(=O)c1ccc(Nc2nc(N/N=C/c3ccc(C(F)(F)F)cc3)nc(Nc3ccccc3)n2)cc1     HCC 2998     label 1
